Field: protein stability index. Provide a value for each of the variants that follow.
B1: RAD51 (parent)
chain: RFLRMLLRLADEFGVAVVITNQVV

variants of: B1; assay: protein stability index of a GFP-peptide fusion (GPS, HEK-293T) (PSI 1-6); higher = more stable; settings: c terminus: a fixed tail appended;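 also: lentivirally expressed fusions sorted by FACS into six bins by GFP to DsRed ratio, PSI derived from sequencing read proportions per bin multiplied by bin number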
Numbers only.

Reported protein stability index for RFLRMNLRLADEFGVAVVITNQVV : what is it?
2.75

// each variant listed below needs its protein stability index
1. RFLRSLLRLADEFGVAVVITNQVV
2. RFLRMLLRLADEFTVAVVITNQVV
3. DFLRMLLRLADEFGVAVVITNQVV
4. RFLRMLLRLADEFGVAVVITNQIV
5. RFLRMLLRLADEFGVAVVITGQVV

2.93
1.94
2
3.7
3.1

Give one value of protein stability index per listed variant.
1. RVLRMLLRLADEFGVAVVITNQVV
2. RFLRMLLRMADEFGVAVVITNQVV
3. RFLRMLLRLADEFPVAVVITNQVV
4. RFLRMLLRLADEFGVAVVIANQVV
5. RFLRMLLRLADEFGVAVVITNQVI
6. RFLRMLLRLADEFGVAMVITNQVV
7. RFLRMLSRLADEFGVAVVITNQVV
8. RFLRMLLRLADNFGVAVVITNQVV

1: 1.59; 2: 1.54; 3: 1.33; 4: 2.68; 5: 3.73; 6: 2.49; 7: 1.6; 8: 1.68

Look up protein stability index for the entries below, preserving their order.
1. RFLRMLLRLADEFGVAHVITNQVV
2. RFLRMLLRYADEFGVAVVITNQVV
3. RFLRMLLRVADEFGVAVVITNQVV
4. RFLRMLLVLADEFGVAVVITNQVV
5. RFLRMLDRLADEFGVAVVITNQVV

2.9
2.89
2.38
2.87
1.3

I'm hoping you can list protein stability index for every variant here, please.
1. RFLRMLLRLADEFGQAVVITNQVV
2. RFLRMLLRLADESGVAVVITNQVV
3. RFLRMLLRLADEFGVMVVITNQVV

3.05
1.59
3.12

All values here come from the supplement of paper PMC10567573.
